# % cells binding to HA values compiled below
test-target: H4 (Influenza A virus)
measurement-protocol: FACS, HA on mammalian cells; 2nd only 11
Give the value, in units of %, as a plain number.

FHF11v9 (antibody, V domains shown) VH: QVQLQQSGPGLVKPSQTLSVTCGISGDSVSSYSAAWNWIRQSPSRGLEWLGRTYYRSGWYNDYAVSVKSRITINPDTSKNQFSLQLISVTPEDTAVYYCARVGAMTFGLLTGGMDVWGQGTTVTVSS VL: EIVLTQSPGTQSLSPGERATLSCRASQSLSRSYLAWYQQRPGKPPRLLIYGASSRATGIPDRFSGSGSGTDFSLTISSLEPEDSAMYFCQYYGDSPLFSFGPGTKVDIK; 47

Q. // Input: FHF11v6 (antibody, V domains shown) VH: QVQLQQSGPGLVKPSQTLSVTCGISGDSVSSHSAAWNWIRQSPSRGLEWLGRTYYRSGWYNDYAVSVKSRITINPDTSKNQFSLQLISVTPEDTAVYYCARVGAMTFGLLTGGMDVWGQGTTVTVSS VL: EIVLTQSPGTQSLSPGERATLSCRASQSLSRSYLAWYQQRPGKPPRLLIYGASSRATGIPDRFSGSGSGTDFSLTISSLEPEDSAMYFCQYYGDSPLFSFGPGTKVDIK . Output its % cells binding to HA only.
A. 49

Q. // Input: FHF11v3 (antibody, V domains shown) VH: QVQLQQSGPGLVKPSQTLSVTCGISGDSVSSYSAAWNWIRQSPSRGLEWLGRTYYRSKWYNDYAVSVKSRITINPDTSKNQFSLQLISVTPEDTAVYYCARVGAMTFGLLTGGMDVWGQGTTVTVSS VL: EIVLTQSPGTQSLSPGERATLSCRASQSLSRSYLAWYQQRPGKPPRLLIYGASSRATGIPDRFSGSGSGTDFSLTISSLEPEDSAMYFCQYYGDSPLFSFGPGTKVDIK . Output its % cells binding to HA only.
A. 48

Q. // Input: FHF11 (antibody, V domains shown) VH: QVQLQQSGPGLVKPSQTLSVTCGISGDSVSSHSAAWNWIRQSPSRGLEWLGRTYYRSKWYNDYAVSVKSRITINPDTSKNQFSLQLISVTPEDTAVYYCARVGAMTFGLLTGGMDVWGQGTTVTVSS VL: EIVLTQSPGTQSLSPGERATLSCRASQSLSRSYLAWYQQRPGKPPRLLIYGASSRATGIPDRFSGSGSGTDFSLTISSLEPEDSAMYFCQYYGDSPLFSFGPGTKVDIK . Output its % cells binding to HA only.
A. 54
